- Test Target: SMARCA2-HiBiT HeLa cells (protein which is expressed from the SMARCA2 gene) (Homo sapiens, UniProt P51531)
- Construct: protein which is expressed from the SMARCA2 and SMARCA4 genes; host or cells: HeLa (SMARCA2-HiBiT engineered line)
- Sequence (P51531 whole entry): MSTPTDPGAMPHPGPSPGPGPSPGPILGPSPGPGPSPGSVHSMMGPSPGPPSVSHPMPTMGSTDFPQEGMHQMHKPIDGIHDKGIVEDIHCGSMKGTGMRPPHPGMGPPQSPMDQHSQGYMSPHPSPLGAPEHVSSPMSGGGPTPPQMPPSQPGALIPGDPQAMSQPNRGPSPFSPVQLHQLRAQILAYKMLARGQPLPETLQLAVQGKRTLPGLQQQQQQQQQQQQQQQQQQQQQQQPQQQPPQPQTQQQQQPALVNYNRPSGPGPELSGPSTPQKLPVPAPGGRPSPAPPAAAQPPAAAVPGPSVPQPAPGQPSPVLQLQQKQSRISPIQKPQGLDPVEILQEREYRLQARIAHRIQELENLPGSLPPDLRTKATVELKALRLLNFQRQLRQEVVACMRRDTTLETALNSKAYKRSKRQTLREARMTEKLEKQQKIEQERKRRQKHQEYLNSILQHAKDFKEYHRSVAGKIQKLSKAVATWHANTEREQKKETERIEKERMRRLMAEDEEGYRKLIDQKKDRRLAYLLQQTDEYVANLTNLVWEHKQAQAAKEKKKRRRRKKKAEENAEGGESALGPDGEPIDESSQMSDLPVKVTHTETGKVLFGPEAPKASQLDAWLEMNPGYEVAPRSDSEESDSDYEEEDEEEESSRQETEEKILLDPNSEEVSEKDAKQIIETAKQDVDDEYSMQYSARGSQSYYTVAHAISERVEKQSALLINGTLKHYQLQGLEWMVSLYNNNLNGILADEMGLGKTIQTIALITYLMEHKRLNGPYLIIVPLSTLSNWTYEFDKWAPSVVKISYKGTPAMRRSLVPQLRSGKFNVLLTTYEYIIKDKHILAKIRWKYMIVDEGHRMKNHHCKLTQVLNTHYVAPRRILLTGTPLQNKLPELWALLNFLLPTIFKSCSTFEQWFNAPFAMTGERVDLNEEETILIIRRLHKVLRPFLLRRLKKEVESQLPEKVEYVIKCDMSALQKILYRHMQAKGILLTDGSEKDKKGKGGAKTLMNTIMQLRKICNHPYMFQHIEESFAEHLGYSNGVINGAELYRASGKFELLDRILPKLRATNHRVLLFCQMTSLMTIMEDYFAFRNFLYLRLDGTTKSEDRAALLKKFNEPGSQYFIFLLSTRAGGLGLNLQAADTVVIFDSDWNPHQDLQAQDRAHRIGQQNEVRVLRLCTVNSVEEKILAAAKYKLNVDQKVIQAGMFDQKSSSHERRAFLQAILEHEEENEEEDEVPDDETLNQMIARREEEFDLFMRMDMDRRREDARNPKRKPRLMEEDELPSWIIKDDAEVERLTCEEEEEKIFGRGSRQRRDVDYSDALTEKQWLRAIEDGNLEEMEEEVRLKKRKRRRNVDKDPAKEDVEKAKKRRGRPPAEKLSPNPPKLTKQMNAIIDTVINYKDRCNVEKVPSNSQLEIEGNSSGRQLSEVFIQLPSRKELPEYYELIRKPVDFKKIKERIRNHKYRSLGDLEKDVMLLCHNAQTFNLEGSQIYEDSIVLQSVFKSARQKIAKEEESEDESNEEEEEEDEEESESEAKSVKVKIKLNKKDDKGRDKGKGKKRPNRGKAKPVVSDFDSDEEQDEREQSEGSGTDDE
- Test Summary: SMARCA2 degradation assay (HiBiT-fusion HeLa cell line, 24 h, luminescence)
- Assay type: cell-based
- Protocol Conditions: @ 1 μM
Recorded Endpoint: SMARCA2 % Degradation @ 1 μM

Example entries and their recorded answers appear below.
compound=NCC#Cc1nccc(N2C3CC2CN(c2cc(-c4ccccc4O)nnc2N)C3)n1 result="+ (+=<30%)"
compound=Nc1nnc(-c2ccccc2O)cc1N1CC2CCC(C1)N2c1ccnc(C#CCN2CC3CC2C3)n1 result="+++ (+++=>70%)"
compound=Nc1nnc(-c2ccccc2O)cc1N1CCCN(c2ccnc(C#CCNC(=O)NC3CCC3)n2)CC1 result="++ (++=30-70%)"
compound=Nc1nnc(-c2ccccc2O)cc1N1CCN(c2ccnc(C#CCNC(=O)c3cnn4ccccc34)n2)CC1 result="++ (++=30-70%)"
compound=Nc1nnc(-c2ccccc2O)cc1N1CCCN(c2ccnc(/C=C/CNC(=O)c3cnc4ccccc4n3)n2)CC1 result="+++ (+++=>70%)"
compound=C[C@@H]1CN(CC#Cc2nccc(N3CCCN(c4cc(-c5ccccc5O)nnc4N)CC3)n2)C[C@@H](C)O1 result="++ (++=30-70%)"
compound="CCC1CN(CC#Cc2nccc(N3CCCN(c4cc(-c5ccccc5O)nnc4N)CC3)n2)c2ccccc2O1 (stereo not shown)" result="++ (++=30-70%)"
compound=C[C@H]1CN(c2ccnc(C#CCNc3ccn(C)n3)n2)CCN1c1cc(-c2ccccc2O)nnc1N result="++ (++=30-70%)"
compound="CC1CN(c2ccnc(C#CCN)n2)CCCN1c1cc(-c2ccccc2O)nnc1N (stereo not shown)" result="+ (+=<30%)"

Query compound follows.
Challenge: For the compound N#CC1CN(CC#Cc2nccc(N3CCCN(c4cc(-c5ccccc5O)nnc4N)CC3)n2)CCO1 (stereo not shown) , give its measured SMARCA2 % Degradation @ 1 μM value.
Response given: ++ (++=30-70%)

The reported measurements were obtained from patent US20260265238A1.
